- measurement_target: rCB2 (Rattus norvegicus, UniProt Q9QZN9)
- Construct: expressed in transfected cells; host or cells: HEK293 cells stably co-expressing GIRK1/2 channels
- Sequence (Q9QZN9 whole entry): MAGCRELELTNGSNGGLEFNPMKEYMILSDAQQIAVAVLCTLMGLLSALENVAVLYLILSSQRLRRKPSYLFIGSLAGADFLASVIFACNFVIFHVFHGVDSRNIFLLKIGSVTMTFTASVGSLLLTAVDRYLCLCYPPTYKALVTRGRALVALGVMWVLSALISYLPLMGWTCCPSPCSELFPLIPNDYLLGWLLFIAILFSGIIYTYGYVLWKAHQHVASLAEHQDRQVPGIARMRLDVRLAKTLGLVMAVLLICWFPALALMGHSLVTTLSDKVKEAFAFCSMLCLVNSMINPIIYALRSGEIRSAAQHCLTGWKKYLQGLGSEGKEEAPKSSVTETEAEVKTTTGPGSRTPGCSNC
- measurement_protocol: Thallium flux assay in HEK/GIRK cells expressing rCB2
- Type: cell-based
- test_context: rCB2 GIRK EC50 in presence of 2-AG, thallium flux, presence of EC20 2-AG
property_measured: EC50 (nM)
The reply should be a number in nM, with the unit left off.

Inquiry: Entry O=C(NCC1CCOCC1)c1cnc(Nc2ccc(Cl)cc2Cl)nc1C(F)(F)F [GW-842,166X] needs its EC50 filled in; supply it.
Reply text: 74
